Answer each item with its documented pIC50.
target: human IDO1 (Homo sapiens); assay: HEK293 cells stably expressing human IDO1, IDO inhibition assay (kynurenine, Ehrlich reagent, absorbance 490 nm); settings: 20 hours incubation, 500 nM reference standard = 100% inhibition, read-out: HEK Human IDO-1 Biological Activity (IC50)
pIC50: −log10 of the molar value.

Query :: So what's the measured pIC50 for this one? CC(C(=O)Nc1ccc(Cl)cc1)C1CCC(c2ccnnc2)CC1 (single isomer, unassigned) [Example 316c]
Result :: < 6.60

Query :: Fill in: pIC50 of CC1(CC(=O)NC2(C)CCCCC2)CCN(c2ccnc(C(F)(F)F)c2)CC1 [Example 322] is ___
Result :: < 6.60

Query :: Given the compound Cc1c(C2CCC(C(C)C(=O)Nc3ccc(Cl)cc3)CC2)ccnc1F (single isomer, unassigned) [Example 310e] , what is its reported pIC50?
Result :: > 7.30

Query :: # get_value(readout='pIC50', item= CCC(C(=O)Nc1ccc(Cl)cc1)[C@H]1CC[C@@H](Oc2ccncc2)CC1 (single isomer, unassigned) [Example 306b] )
Result :: < 6.60

====

biological target: UniProt P14902; assay: HEK293 cells stably expressing human IDO1, IDO inhibition assay (kynurenine, Ehrlich reagent, absorbance 490 nm); settings: 20 hours incubation, 500 nM reference standard = 100% inhibition, read-out: HEK Human IDO-1 Biological Activity (IC50)
pIC50: −log10 of the molar value.
Task for the reader: assign each of the following compounds its reported pIC50.

Query :: Need pIC50, item Cc1c(C2CCC(C(C)C(=O)Nc3ccc(Cl)cc3)CC2)ccnc1F (single isomer, unassigned) [Example 310f]
Result :: > 6.60

Query :: What value of measured pIC50 is listed for Cc1nccc(C2CCC(C(C)C(=O)Nc3ccc(Cl)cc3)CC2)n1 (stereo not shown) [Example 319b] ?
Result :: < 6.60

Query :: Which pIC50 reading was recorded for the compound CC(C(=O)Nc1ccc(Cl)cc1)C1CCC(c2ccnnc2)CC1 (single isomer, unassigned) [Example 316a] ?
Result :: < 6.60

Query :: // lookup pIC50 for COc1cc(C2CCC(C(C)C(=O)Nc3ccc(Cl)cc3)CC2)ccn1 (stereo not shown) [Example 307b]
Result :: > 7.30

====

target: UniProtKB P14902; assay: HEK293 cells stably expressing human IDO1, IDO inhibition assay (kynurenine, Ehrlich reagent, absorbance 490 nm); conditions: 20 hours incubation, 500 nM reference standard = 100% inhibition, read-out: HEK Human IDO-1 Biological Activity (IC50)
Can you tell me IC50 for the items I'm about to list?

Query :: IC50 lookup needed for COc1cc([C@H]2CC[C@@H]([C@H](C)C(=O)Nc3ccc(Cl)cc3)CC2)ccn1 (single isomer, unassigned) [Example 307d] , thanks.
Result :: < 0.05 µM

Query :: Requested read-out: IC50. Entry: CC(C(=O)Nc1ccc(Cl)cc1)C1CCC(c2cccc(-c3ccccc3)c2)CC1 (single isomer, unassigned) [Example 317a]
Result :: < 0.05 µM

Query :: Quick one: IC50 for Cc1cnccc1C1CCC(C(C)C(=O)Nc2ccc(Cl)cc2)CC1 (single isomer, unassigned) [Example 313e] ?
Result :: > 0.25 µM

Query :: Which IC50 value is on record for COc1cc([C@H]2CC[C@@H]([C@H](C)C(=O)Nc3ccc(Cl)cc3)CC2)ccn1 (single isomer, unassigned) [Example 307e] ?
Result :: < 0.25 µM

Query :: Would you mind telling me what IC50 value was observed for CC1(CC(=O)Nc2ccc(Cl)cc2)CCN(c2ccnc(C(F)(F)F)c2)CC1 [Example 321] ?
Result :: < 0.25 µM

Query :: Consider the molecule shown here: Cc1cc(C2CCC(C(C)C(=O)Nc3ccc(Cl)cc3)CC2)cc(C)n1 (single isomer, unassigned) [Example 308c] What is its recorded IC50?
Result :: > 0.25 µM

Query :: Which value of IC50 has been reported for Cc1nccc(C2CCC(C(C)C(=O)Nc3ccc(Cl)cc3)CC2)c1C (single isomer, unassigned) [Example 311c] in the records?
Result :: > 0.25 µM

Query :: Which value of IC50 has been reported for Cc1nccc(C2CCC(C(C)C(=O)Nc3ccc(Cl)cc3)CC2)n1 (centres unmarked) [Example 319a] in the records?
Result :: < 0.25 µM

Query :: Quick check: IC50 of CC(C(=O)Nc1ccc(Cl)cc1)C1CCC(c2ccncc2F)CC1 (centres unmarked) [Example 318a] ?
Result :: < 0.05 µM

Query :: Return reported IC50; argument: CC(=O)Nc1cc(C2CCC(C(C)C(=O)Nc3ccc(Cl)cc3)CC2)ccn1 (single isomer, unassigned) [Example 315a]
Result :: < 0.25 µM

Query :: Which value of IC50 has been reported for Cc1cnccc1C1CCC(C(C)C(=O)Nc2ccc(Cl)cc2)CC1 (single isomer, unassigned) [Example 313a] in the records?
Result :: < 0.05 µM

====

target: human IDO1 (Homo sapiens, UniProt P14902); test: HEK293 cells stably expressing human IDO1, IDO inhibition assay (kynurenine, Ehrlich reagent, absorbance 490 nm); settings: 20 hours incubation, 500 nM reference standard = 100% inhibition, read-out: HEK Human IDO-1 Biological Activity (IC50)
Sequence (P14902 whole entry): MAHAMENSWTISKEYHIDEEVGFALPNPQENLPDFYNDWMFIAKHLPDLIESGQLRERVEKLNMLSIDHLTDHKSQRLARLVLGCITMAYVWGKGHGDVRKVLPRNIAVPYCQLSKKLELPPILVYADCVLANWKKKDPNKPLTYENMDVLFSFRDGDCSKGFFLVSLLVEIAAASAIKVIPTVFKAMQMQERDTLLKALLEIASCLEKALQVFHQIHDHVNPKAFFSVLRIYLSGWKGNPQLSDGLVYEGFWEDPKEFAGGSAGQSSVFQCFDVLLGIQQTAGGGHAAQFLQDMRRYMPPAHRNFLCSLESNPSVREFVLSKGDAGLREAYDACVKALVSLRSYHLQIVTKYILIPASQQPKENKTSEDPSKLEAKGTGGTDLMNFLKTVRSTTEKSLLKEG
pIC50: −log10 of the molar value.
Assignment: determine reported pIC50 for the given compounds.

Query :: I'd like to know its pIC50. The compound in question is CC(C(=O)Nc1ccc(Cl)cc1)C1CCC(c2cccc(-c3ccccc3)c2)CC1 (single isomer, unassigned) [Example 317c]
Result :: < 6.60

Query :: Which value of pIC50 has been reported for Cc1cc(C2CCC(C(C)C(=O)Nc3ccc(Cl)cc3)CC2)ccn1 (single isomer, unassigned) [Example 309a] in the records?
Result :: < 6.60

Query :: Entry CC(C(=O)Nc1ccc(Cl)cc1)C1CCC(c2cccc(-c3ccccc3)c2)CC1 (single isomer, unassigned) [Example 317d] has what pIC50?
Result :: < 6.60

Query :: # query: pIC50 of entry CC(C(=O)Nc1ccc(Cl)cc1)[C@H]1CC[C@H](Oc2ccnc(C(F)(F)F)c2)CC1 (mixture of isomers)
Result :: > 7.30

Query :: May I ask what pIC50 has been recorded for C[C@@H](C(=O)Nc1ccc(Cl)cc1)[C@H]1CC[C@H](Oc2ccnc(C(F)(F)F)c2)CC1 (single isomer, unassigned) [Example 324b] ?
Result :: < 6.60

Query :: pIC50 for Cc1nccc(O[C@H]2CC[C@H](C(C)C(=O)Nc3ccc(Cl)cc3)CC2)c1Cl (single isomer, unassigned) ?
Result :: > 7.30

====

biological target: human IDO1 (Homo sapiens); experiment: HEK293 cells stably expressing human IDO1, IDO inhibition assay (kynurenine, Ehrlich reagent, absorbance 490 nm); conditions: 20 hours incubation, 500 nM reference standard = 100% inhibition, read-out: HEK Human IDO-1 Biological Activity (IC50)
Attribute Measured: IC50

Query :: Report IC50 for CC(C(=O)Nc1ccc(Cl)cc1)C1CCC(c2ccnnc2)CC1 (single isomer, unassigned) [Example 316b] please.
Result :: > 250 nM

Query :: # IC50 lookup, item Cc1c(C2CCC(C(C)C(=O)Nc3ccc(Cl)cc3)CC2)ccnc1F (single isomer, unassigned) [Example 310c]
Result :: < 50 nM

Query :: Dear colleague, I am looking for the recorded IC50 of the following molecule: Cc1cnccc1C1CCC(C(C)C(=O)Nc2ccc(Cl)cc2)CC1 (single isomer, unassigned) [Example 313f]
Result :: < 50 nM

Query :: Suppose we examine the molecule CC(C(=O)Nc1ccc(Cl)cc1)C1CCC(c2ccnc(C(F)(F)F)c2)CC1 (single isomer, unassigned) [Example 312c] ; what IC50 value has been reported?
Result :: < 50 nM

Query :: # IC50 lookup, item Cc1nccc(C2CCC(C(C)C(=O)Nc3ccc(Cl)cc3)CC2)c1C (single isomer, unassigned) [Example 311b]
Result :: < 50 nM

Query :: # input molecule: Cc1cc(C2CCC(C(C)C(=O)Nc3ccc(Cl)cc3)CC2)cc(C)n1 (single isomer, unassigned) [Example 308b] ; wanted: its IC50
Result :: < 50 nM

Query :: Item under review: Cc1cc(C2CCC(C(C)C(=O)Nc3ccc(Cl)cc3)CC2)cc(C)n1 (single isomer, unassigned) [Example 308a] . Reported IC50?
Result :: < 250 nM
